assay_remarks: Oral bioavailability in rat
recorded_conditions: in vivo
assay_metric: bioavailability

{"compound": "CCOc1ccc(Cc2cc([C@@H]3O[C@H](CO)[C@@H](O)[C@H](O)[C@H]3O)ccc2Cl)cc1 [DAPAGLIFLOZIN]", "measured": "84%"}

---

assay_remarks: Clearance in rat at 1 mg/kg, po after 1.7 hrs
recorded_conditions: in vivo

{"molecule": "CCOc1ccc(Cc2cc([C@@H]3O[C@H](CO)[C@@H](O)[C@H](O)[C@H]3O)ccc2Cl)cc1 [DAPAGLIFLOZIN]", "CL/F at 1.7 h, mL/min/kg": 4.8}

---

assay_remarks: in vivo
recorded_conditions: rat, po, 1 mg/kg

{"compound_string": "CCOc1ccc(Cc2cc([C@@H]3O[C@H](CO)[C@@H](O)[C@H](O)[C@H]3O)ccc2Cl)cc1", "Cmax at 1.7 h [ng/mL]": 600}
